Measured melting point, listed per entry.
result-type: melting point (°C)

• CCOCC(=O)N[C@H]1CC[C@H](CCN2CCN(c3cc(C(C)(C)C)nc(C(C)(C)C)n3)CC2)CC1 = 104
• COCC(=O)N[C@H]1CC[C@H](CCN2CCN(c3cccc4c3CCCC4)CC2)CC1 = 120
• N#CCC(=O)N[C@H]1CC[C@H](CCN2CCN(c3ccc4c(c3)CCC4)CC2)CC1 = 210
• O=C(N[C@H]1CC[C@H](CCN2CCN(c3cc(Cl)ccc3F)CC2)CC1)C1=CCCC1 = 198
• O=C(CC1CC=CC1)N[C@H]1CC[C@H](CCN2CCN(c3ccccc3F)CC2)CC1 = 188
• COCC(=O)N[C@H]1CC[C@H](CCN2CCN(c3cccc(C(F)(F)F)c3F)CC2)CC1 = 142

====

result-type: melting point

* N#CCCCC(=O)N[C@H]1CC[C@H](CCN2CCN(c3ccc(C(F)(F)F)cc3)CC2)CC1 [Example 544] | 207 °C
* Cc1ccc(N2CCN(CC[C@H]3CC[C@H](NC(=O)CC(F)(F)F)CC3)CC2)cc1 [Example 493] | 217 °C
* N#CCCCC(=O)N[C@H]1CC[C@H](CCN2CCN(c3cc(Cl)ccc3F)CC2)CC1 [Example 414] | 165 °C
* CC(=O)CN1CCC(CCN2CCN(c3c(C)cccc3C)CC2)CC1.Cl.Cl | 249 °C
* CC(=O)CN1CCC(CCN2CCN(c3cc(F)c(C(F)(F)F)c(F)c3)CC2)CC1.Cl.Cl | 80 °C
* COCC(=O)N[C@H]1CC[C@H](CCN2CCC(c3cccc(C)c3C#N)CC2)CC1 [Example 55] | 141 °C
* N#CCCCC(=O)N[C@H]1CC[C@H](CCN2CC=C(c3ccc(Cl)cc3)CC2)CC1 | 198 °C
* CC(F)(F)c1cccc(N2CCN(CC[C@H]3CC[C@H](NC(=O)CCCC#N)CC3)CC2)c1 [Example 314] | 179 °C

====

Reported values of melting point for individual entries
result-type: melting point (°C)

• CC(C)(C)c1cccc(N2CCN(CC[C@H]3CC[C@H](NC(=O)CC#N)CC3)CC2)c1 [Example 169] = 150
• COCC(=O)N[C@H]1CC[C@H](CCN2CC=C(c3cccc(C)c3C#N)CC2)CC1 [Example 54] = 158
• O=C(CC(F)(F)F)N[C@H]1CC[C@H](CCN2CCN(c3ccccc3F)CC2)CC1 [Example 87] = 207
• COc1ccccc1N1CCN(CC[C@H]2CC[C@H](NC(=O)C3CC=CC3)CC2)CC1 [Example 372] = 202
• COCC(=O)N[C@H]1CC[C@H](CCN2CCN(c3cccc(C)c3C#N)CC2)CC1 [Example 49] = 136
• N#CCC(=O)N[C@H]1CC[C@H](CCN2CC=C(c3ccc(C(F)(F)F)cc3)CC2)CC1 = 217
• Cl.O=C(CC(F)(F)F)N1CCC(CCN2CCN(c3cccc4c3CCC4)CC2)CC1 = 206

====

compounds and their reported melting point
result-type: melting point

• COCC(=O)N[C@H]1CC[C@H](CCN2CCN(c3ccccc3OC)CC2)CC1 = 125 to 126 °C
• N#CCC(=O)N[C@H]1CC[C@H](CCN2CCN(c3cccc(Cl)c3C#N)CC2)CC1 = 232 to 233 °C
• N#CCC(=O)N[C@H]1CC[C@H](CCN2CCN(c3cc(Cl)ccc3Cl)CC2)CC1 = 182 to 184 °C
• N#CCC(=O)N[C@H]1CC[C@H](CCN2CCN(c3cccc(F)c3C#N)CC2)CC1 = 187 to 189 °C

====

Hi! Could you tag entries with melting point below 200 °C as criterion met, and those at or above as criterion not met? Much appreciated.

* COCCCC(=O)N[C@H]1CC[C@H](CCN2CCN(c3cccc(C#N)c3)CC2)CC1 | criterion met
* Cc1cccc(N2CCN(CC[C@H]3CC[C@H](NC(=O)CCCC#N)CC3)CC2)c1C | criterion met
* CC(=O)CN1CCC(CCN2CCN(c3cccc4c3OCO4)CC2)CC1.Cl.Cl | criterion not met
* COCC(=O)N1CCC(CCN2CCN(c3cccc(C(F)(F)F)c3)CC2)CC1.Cl | criterion met
* Cc1cccc(N2CCN(CC[C@H]3CC[C@H](NC(=O)CC(F)(F)F)CC3)CC2)c1 | criterion met
* COCC(=O)N[C@H]1CC[C@H](CCN2CCN(c3cccc(C#N)c3)CC2)CC1 | criterion met
* CC(=O)CN1CCC(CCN2CCN(c3ccccc3F)CC2)CC1.Cl.Cl | criterion not met
* N#CCC(=O)N[C@H]1CC[C@H](CCN2CCN(c3ccc(F)cc3)CC2)CC1 | criterion not met
* CCc1ccc(F)c(N2CCN(CC[C@H]3CC[C@H](NC(=O)CC#N)CC3)CC2)c1 | criterion met
* N#CCCCC(=O)N[C@H]1CC[C@H](CCN2CCN(c3cc(C(F)(F)F)cc(C(F)(F)F)c3)CC2)CC1 | criterion met
* CCc1cccc(N2CCN(CC[C@H]3CC[C@H](NC(=O)CS(C)(=O)=O)CC3)CC2)c1 | criterion met
* CC(=O)CN1CCC(CCN2CCN(c3cccc(CC(C)C)c3)CC2)CC1.Cl.Cl | criterion not met
* COc1ccc(C(F)(F)F)cc1N1CCN(CC[C@H]2CC[C@H](NC(=O)CC#N)CC2)CC1 | criterion met
* O=C(CCC(F)(F)F)N[C@H]1CC[C@H](CCN2CCN(c3cc(C(F)(F)F)ccc3F)CC2)CC1 | criterion met

====

result-type: melting point (°C)

• N#CCC(=O)N[C@H]1CC[C@H](CCN2CCN(c3ccc(C(F)(F)F)cc3F)CC2)CC1 = 212
• CON(C)C(=O)CN1CCC(CCN2CCN(c3cccc(C)c3C)CC2)CC1 = 66
• N#CCCCC(=O)N[C@H]1CC[C@H](CCN2CCN(c3cccc(F)c3F)CC2)CC1 = 197

====

result-type: melting point (°C)

• Cc1ccc(N2CCN(CC[C@H]3CC[C@H](NC(=O)CC#N)CC3)CC2)cc1C [Example 340] = 210
• O=C(N[C@H]1CC[C@H](CCN2CCN(c3cccc(-c4ncco4)c3)CC2)CC1)C1=COCC1 [Example 532] = 202
• COc1ccc(Cl)cc1N1CCN(CC[C@H]2CC[C@H](NC(=O)CC#N)CC2)CC1 [Example 176] = 180
• N#Cc1cccc(C2=CCN(CC[C@H]3CC[C@H](NC(=O)CCC(F)(F)F)CC3)CC2)c1 = 177
• CCOCC(=O)N[C@H]1CC[C@H](CCN2CCN(c3cc(C)cc(Cl)c3)CC2)CC1 [Example 577] = 100
• CC(=O)CN1CCC(CCN2CC=C(c3cccc4c3CCC4)CC2)CC1.Cl.Cl = 291

====

result-type: melting point (°C)

- O=C(N[C@H]1CC[C@H](CCN2CCN(c3cccc(C(F)(F)F)c3F)CC2)CC1)C(F)F [Example 443]: 156
- O=C(N[C@H]1CC[C@H](CCN2CCN(c3cc(F)ccc3F)CC2)CC1)C1=CCCC1 [Example 441]: 209
- CC(=O)C(=O)N1CCC(CCN2CCN(c3cccc4c3CCC4)CC2)CC1.Cl: 225
- CCOCC(=O)N[C@H]1CC[C@H](CCN2CC=C(c3ccc(Cl)cc3)CC2)CC1: 149
- Cl.Cl.O=C(N[C@H]1CC[C@H](CCN2CCN(c3cc(C(F)(F)F)ccc3F)CC2)CC1)[C@@H]1CCCN1 (stereo in doubt): 274
- O=C(N[C@H]1CC[C@H](CCN2CCN(c3cccc(C(F)(F)F)c3)CC2)CC1)C1=CCCCC1 [Example 53]: 175
- COc1c(Cl)cccc1N1CCN(CC[C@H]2CC[C@H](NC(=O)CCCC#N)CC2)CC1 [Example 449]: 118
- COc1cc(N2CCN(CC[C@H]3CC[C@H](NC(=O)CCCC#N)CC3)CC2)cc(C(F)(F)F)c1 [Example 421]: 147
- CC(=O)CN1CCC(CCN2CCN(c3cccc(Cl)c3C#N)CC2)CC1.Cl.Cl: 284
- CC(=O)CN1CCC(CCN2CCC(c3cccc4c3CCC4)CC2)CC1.Cl.Cl: 339
- COCC(=O)N[C@H]1CC[C@H](CCN2CCN(c3ccccc3Cl)CC2)CC1 [Example 129]: 100
- CCOc1cccc(N2CCN(CC[C@H]3CC[C@H](NC(=O)CCCC#N)CC3)CC2)c1 [Example 535]: 121
- CC(=O)CN1CCC(CCN2CCN(c3cc(F)cc(F)c3)CC2)CC1.Cl.Cl: 260
- N#CCC(=O)N[C@H]1CC[C@H](CCN2CCN(c3ccc(F)c(F)c3F)CC2)CC1 [Example 450]: 207
- COc1ccc(Cl)cc1N1CCN(CCC2CCN(CC(C)=O)CC2)CC1.Cl.Cl: 275
- COCC(=O)N[C@H]1CC[C@H](CCN2CCN(c3cc(C(F)(F)F)cc(C(F)(F)F)c3)CC2)CC1 [Example 118]: 164
- Cc1cc(F)cc(N2CCN(CC[C@H]3CC[C@H](NC(=O)CCCC#N)CC3)CC2)c1 [Example 726]: 150
- NC(=O)CCC(=O)N[C@H]1CC[C@H](CCN2CCN(c3ccc(F)c(Cl)c3F)CC2)CC1 [Example 602]: 257
- O=C(N[C@H]1CC[C@H](CCN2CCN(c3cccc(C(F)(F)F)c3F)CC2)CC1)[C@@H]1CCCN1 [Example 501]: 140
- N#CCCC(F)(F)C(=O)N[C@H]1CC[C@H](CCN2CCN(c3cccc(C(F)(F)F)c3F)CC2)CC1 [Example 460]: 151
- O=C(N[C@H]1CC[C@H](CCN2CCN(c3ccc(F)cc3F)CC2)CC1)C1=CCCCO1 [Example 565]: 160
- CS(=O)(=O)c1cccc(N2CCN(CC[C@H]3CC[C@H](NC(=O)C(F)(F)F)CC3)CC2)c1 [Example 461]: 132
- N#CCC(=O)N[C@H]1CC[C@H](CCN2CCN(c3ccc(Cl)cc3F)CC2)CC1 [Example 359]: 218

Where these numbers come from: patent US8802678B2
